Cited source: paper PMC11683865

# Target Entity: Leucine-rich repeat serine/threonine-protein kinase 2 (LRRK2), WD-40 repeat (WDR) domain (Homo sapiens, UniProt Q5S007)
# Construct: WD-40 repeat (WDR) domain
# Sequence (Q5S007 2142-2527): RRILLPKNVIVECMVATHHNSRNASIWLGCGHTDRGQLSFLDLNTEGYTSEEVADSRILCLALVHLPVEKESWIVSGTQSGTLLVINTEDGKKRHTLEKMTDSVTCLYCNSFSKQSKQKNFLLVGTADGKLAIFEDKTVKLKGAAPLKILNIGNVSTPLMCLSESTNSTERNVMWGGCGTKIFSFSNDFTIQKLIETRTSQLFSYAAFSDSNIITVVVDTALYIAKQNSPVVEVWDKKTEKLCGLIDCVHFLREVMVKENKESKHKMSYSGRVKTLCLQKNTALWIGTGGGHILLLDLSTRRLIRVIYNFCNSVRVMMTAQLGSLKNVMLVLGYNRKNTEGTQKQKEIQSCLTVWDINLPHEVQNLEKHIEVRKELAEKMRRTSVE
# Experiment Summary: SPR
# Assay type: binding
# Test Settings: read-out: Kd
pKd: −log10 of the molar value.
Readout Label: pKd

Give the measured pKd of O=C(NCc1ccc[nH]c1=O)N1CCC(CCc2ccc(F)cc2F)CC1 .
< 4.00
